B1: HDV Ribozyme (parent)
chain: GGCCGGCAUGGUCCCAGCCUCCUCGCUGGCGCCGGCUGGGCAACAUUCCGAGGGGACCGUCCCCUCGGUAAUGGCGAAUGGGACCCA

- Variants of: B1
- EXPERIMENT NOTES: self-cleavage, relative activity (ratio to wild type); higher = more cleavage; co-transcriptional
Answer criterion not met if self-cleavage is under 0.4, and criterion met if it is 0.4 or more.

Solved cases below.
[[record]]
biopolymer_sequence = "GGCCGGCAUGGUCCCAGCCUCCUCGCUGGCGCCGGCUGGGCAACAUUCCGAGGGGACCGGCCCCUCGGUAAUGGAGAAUGGGACCCA [U60G C75A]"
cat = "criterion not met"

[[record]]
biopolymer_sequence = "GGCCGGCAUGGUCCCAGCCUCCUCGCUGGCGCCGGCUGGGCCACAUUCCUAGGGGACCGUCCCCUCGGUAAUGGCGAAUGGGACCCA [A42C G50U]"
cat = "criterion not met"


Please turn your attention to the following entry.
Test whether the variant GGCCGGCAUGGUCCCAGCCUCCUCGCUGGCGCCCGCUGGGCAACAUUCCGAGGGGACCGUCCCCUCGGUAAUGGCGAAUGGGACUCA [G34C C85U] records self-cleavage of 0.4 or higher.
criterion not met
